# Test system: SK-OV-3 ovarian
# protocol: NCI tumour cell line growth inhibition, 48 h
parameter: TGI

* CCC1(O)CC(O)c2c(O)c3c(c(O)c2C1C(=O)OC)C(=O)c1cccc(O)c1C3=O (configuration not stated) | > 36.1 µM
* O=S(=O)([O-])c1cccc2cccc(N=Cc3ccccc3[O-])c12.O=S(=O)([O-])c1cccc2cccc(N=Cc3ccccc3[O-])c12.[O]=[U]=[O] | > 100 µM
* CC(=O)NC1C(OCc2ccccc2)OC(CO)C(O)C1OCC(=O)N[C@@H](C)C(=O)N[C@H](CCC(=O)NCCCCNc1c2ccccc2nc2cccc([N+](=O)[O-])c12)C(N)=O (some centres not stated) | > 71.8 µM
* CC(=O)NCC1OC2COC(c3ccccc3)OC2C2N=C(c3ccccc3)OC12 (configuration not stated) | > 100 µM
* COc1ccc(C(=O)/C=C/c2ccc(OCCCOc3ccc(/C=C/C(=O)c4ccc(OC)c(OC)c4)cc3)cc2)cc1OC | > 100 µM
* [Cl][Bi]([O]c1ccccn1)[O]c1ccccn1 | > 100 µM
* O=C1NC(=S)NC(=O)C1=Cc1cc2c(cc1[N+](=O)[O-])OCO2 | > 100 µM
* O=C(O)c1ccc2c(c1)Cc1cc([N+](=O)[O-])ccc1-2 | > 100 µM
* OC1(C(O)(c2ccc(-c3ccccc3)cc2)c2ccc(-c3ccccc3)cc2)CCCCC1 | > 100 µM
* CCOC(=O)NC(OCc1ccccc1)(C(=O)OC)C(F)(F)F (configuration not stated) | > 100 µM
* C/C(=N\NC(=O)c1ccncc1)c1cccc(C(F)(F)F)c1 | > 10 µM
* CCOC(=O)c1nc2ccccc2nc1Nc1ccc(F)cc1 | 37.7 µM
